tested on: NCI-H226 lung; assay: NCI-60 one-dose screen, 48 h (100 = growth as untreated, 0 = no growth, -100 = all killed); conditions: 10 µM unless noted
The panel holds about 83,000 compounds, 20% with a hit somewhere; the sample as a whole holds those more often. Activity calls are given as the source filed them. Rule for the calls: active = growth percent below 10; inactive = the rest.
property: growth

- structure smiles string: "CCN1C(=O)C(=C/C=C/c2ccccc2)C(=O)N(CC)C1=O"
  assay target: "NCI-H226 lung"
  property: "growth"
  test value: "94.5% (inactive)"
- structure smiles string: "CC[C@]12C=CCN3CC[C@]4(C(=C(C(=O)OC)C1)Nc1cc(OC)c(OC(C)=O)cc14)[C@@H]32"
  assay target: "NCI-H226 lung"
  property: "growth"
  test value: "34.4% (inactive)"
- structure smiles string: "Cc1c2cc(Cl)c3ccccc3c2c[n+]2ccccc12"
  assay target: "NCI-H226 lung"
  property: "growth"
  test value: "43.5% (inactive)"
- structure smiles string: "CC(=O)O[C@H](C[C@H](C(C)C)N(C)C(=O)[C@@H](NC(=O)[C@H]1CCCCN1C)C(C)C)c1cccc(C(=O)N[C@@H](Cc2ccccc2)C[C@H](C)C(=O)O)n1"
  assay target: "NCI-H226 lung"
  property: "growth"
  test value: "61.6% (inactive)"
- structure smiles string: "O=C1NC(=O)C(=Cc2cccn2CCCCCn2c3ccccc3c(=O)c3ccccc32)C(=O)N1"
  assay target: "NCI-H226 lung"
  property: "growth"
  test value: "99.1% (inactive)"
- structure smiles string: "COC(=O)[C@@H](C)C[C@H](Cc1ccccc1)NC(=O)c1csc(CC[C@H](C(C)C)N(C)C(=O)[C@@H](NC(=O)[C@H]2CCCCN2C)C(C)C)n1"
  assay target: "NCI-H226 lung"
  property: "growth"
  test value: "50.2% (inactive)"
- structure smiles string: "C=C(C)[C@@]12OC3(/C=C/C=C/CCCCC)O[C@@H]1[C@@H]1[C@@H]4O[C@]4(CO)[C@@H](O)[C@]4(O)C(=O)C(C)=C[C@H]4[C@@]1(O3)[C@H](C)[C@H]2OC(=O)c1ccccc1"
  assay target: "NCI-H226 lung"
  property: "growth"
  test value: "79.2% (inactive)"
